Parameter viability, T/C: see the listing below.
- System: 379773-124-R-J2-PDC complex spheroids, viability % test/control
- EXPERIMENT_DESCRIPTION: Anticancer human tumor 379773-124-R-J2-PDC patient-derived endometrial carcinoma cell line growth inhibition [CLK]
- CONDITION_CONTEXT: second compound 10 µM; first compound 0.316 µM; stronger effect = lower value

COMPOUND: COc1c(OCCCN2CCOCC2)ccc2c3n(c(=NC(=O)c4cnc(N)nc4)nc12)CCN3 + CNC(=O)c1ccc(Nc2nc(OC3CCCC3)c3c(-c4ccc5nc(C)oc5c4)c[nH]c3n2)c(OC)c1
viability, T/C (%): 1.54

COMPOUND: CCc1c2c(nc3ccc(O)cc13)-c1cc3c(c(=O)n1C2)COC(=O)[C@]3(O)CC + CN1CCN(c2cc(C(=O)Nc3cc4cc(-c5cnn(C)c5)ccc4cn3)ccn2)CC1
viability, T/C (%): 0.75

COMPOUND: O=C(c1cc(Cc2n[nH]c(=O)c3ccccc23)ccc1F)N1CCN(C(=O)C2CC2)CC1 + CNC(=O)c1ccc(Nc2nc(OC3CCCC3)c3c(-c4ccc5nc(C)oc5c4)c[nH]c3n2)c(OC)c1
viability, T/C (%): 24.8

COMPOUND: O=c1[nH]cc(F)c(=O)[nH]1 + CNC(=O)c1ccc(Nc2nc(OC3CCCC3)c3c(-c4ccc5nc(C)oc5c4)c[nH]c3n2)c(OC)c1
viability, T/C (%): 28.6

COMPOUND: CCCS(=O)(=O)Nc1ccc(F)c(C(=O)c2c[nH]c3ncc(-c4ccc(Cl)cc4)cc23)c1F + CN1CCN(c2cc(C(=O)Nc3cc4cc(-c5cnn(C)c5)ccc4cn3)ccn2)CC1
viability, T/C (%): 0.7

* * *

- System: 379773-124-R-J2-PDC complex spheroids, viability % test/control
- EXPERIMENT_DESCRIPTION: Anticancer human tumor 379773-124-R-J2-PDC cell line growth inhibition [CLK]; active = viability on the fitted dose curve at most 10% of control; inactive = the rest;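 further: compound exposure lasted seven days before the viability readout; 100% = DMSO vehicle control wells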
- CONDITION_CONTEXT: second compound 0.316 µM; first compound 3.16 µM
Classes used: active, inactive

COMPOUND: CCCS(=O)(=O)Nc1ccc(F)c(C(=O)c2c[nH]c3ncc(-c4ccc(Cl)cc4)cc23)c1F + CNC(=O)c1ccc(Nc2nc(OC3CCCC3)c3c(-c4ccc5nc(C)oc5c4)c[nH]c3n2)c(OC)c1
MEASUREMENT_TARGET: 379773-124-R-J2-PDC complex spheroids, viability % test/control
CATEGORY_LABEL: inactive
//
COMPOUND: CC(=O)O[C@H]1C(=O)[C@@]2(C)[C@H]([C@H](OC(=O)c3ccccc3)[C@]3(O)C[C@H](OC(=O)[C@H](O)[C@@H](NC(=O)c4ccccc4)c4ccccc4)C(C)=C1C3(C)C)[C@]1(OC(C)=O)CO[C@@H]1C[C@@H]2O + CN1CCN(c2cc(C(=O)Nc3cc4cc(-c5cnn(C)c5)ccc4cn3)ccn2)CC1
MEASUREMENT_TARGET: 379773-124-R-J2-PDC complex spheroids, viability % test/control
CATEGORY_LABEL: active
//
COMPOUND: CC1COCCN1c1cc(C2(S(C)(=N)=O)CC2)nc(-c2ccnc3[nH]ccc23)n1 (stereo not given) + CN1CCN(c2cc(C(=O)Nc3cc4cc(-c5cnn(C)c5)ccc4cn3)ccn2)CC1
MEASUREMENT_TARGET: 379773-124-R-J2-PDC complex spheroids, viability % test/control
CATEGORY_LABEL: inactive
//
COMPOUND: Nc1ccccc1NC(=O)c1ccc(CNC(=O)OCc2cccnc2)cc1 + CN1CCN(c2cc(C(=O)Nc3cc4cc(-c5cnn(C)c5)ccc4cn3)ccn2)CC1
MEASUREMENT_TARGET: 379773-124-R-J2-PDC complex spheroids, viability % test/control
CATEGORY_LABEL: active
//
COMPOUND: Nc1ccn(C2OC(CO)C(O)C2(F)F)c(=O)n1 (stereo not given) + CNC(=O)c1ccc(Nc2nc(OC3CCCC3)c3c(-c4ccc5nc(C)oc5c4)c[nH]c3n2)c(OC)c1
MEASUREMENT_TARGET: 379773-124-R-J2-PDC complex spheroids, viability % test/control
CATEGORY_LABEL: active
//
COMPOUND: C#Cc1c(F)ccc2cc(O)cc(-c3ncc4c(N5CC6CCC(C5)N6)nc(OCC56CCCN5CC(F)C6)nc4c3F)c12 (stereo not given) + CN1CCN(c2cc(C(=O)Nc3cc4cc(-c5cnn(C)c5)ccc4cn3)ccn2)CC1
MEASUREMENT_TARGET: 379773-124-R-J2-PDC complex spheroids, viability % test/control
CATEGORY_LABEL: inactive
//
COMPOUND: CC(CO)NC(=O)c1cc(-c2ccc(Cl)cc2)nn(-c2cnn(C)c2)c1=O (stereo not given) + CN1CCN(c2cc(C(=O)Nc3cc4cc(-c5cnn(C)c5)ccc4cn3)ccn2)CC1
MEASUREMENT_TARGET: 379773-124-R-J2-PDC complex spheroids, viability % test/control
CATEGORY_LABEL: inactive
//
COMPOUND: O=C(c1cc(Cc2n[nH]c(=O)c3ccccc23)ccc1F)N1CCN(C(=O)C2CC2)CC1 + CNC(=O)c1ccc(Nc2nc(OC3CCCC3)c3c(-c4ccc5nc(C)oc5c4)c[nH]c3n2)c(OC)c1
MEASUREMENT_TARGET: 379773-124-R-J2-PDC complex spheroids, viability % test/control
CATEGORY_LABEL: inactive
//
COMPOUND: C=C(F)C(=O)N1CCN(c2nc(OCC3CCCN3C)nc3c2CCN(c2cccc4cccc(Cl)c24)C3)CC1CC#N (stereo not given) + CNC(=O)c1ccc(Nc2nc(OC3CCCC3)c3c(-c4ccc5nc(C)oc5c4)c[nH]c3n2)c(OC)c1
MEASUREMENT_TARGET: 379773-124-R-J2-PDC complex spheroids, viability % test/control
CATEGORY_LABEL: inactive
//
COMPOUND: COc1ccc([C@@H](O)c2cc(-c3ncnc4cc(N5CCOCC5)ccc34)c(F)cc2Cl)nn1 + CNC(=O)c1ccc(Nc2nc(OC3CCCC3)c3c(-c4ccc5nc(C)oc5c4)c[nH]c3n2)c(OC)c1
MEASUREMENT_TARGET: 379773-124-R-J2-PDC complex spheroids, viability % test/control
CATEGORY_LABEL: inactive

Sourced from PubChem BioAssay AID2060604
